- system: T1, T47D (native PRLR expressing cell line) (Homo sapiens, UniProt P16471)
- T1 construct: a native PRLR expressing cell line (T47D); endogenous in cells; host or cells: T47D
- T1 sequence (P16471 25-622): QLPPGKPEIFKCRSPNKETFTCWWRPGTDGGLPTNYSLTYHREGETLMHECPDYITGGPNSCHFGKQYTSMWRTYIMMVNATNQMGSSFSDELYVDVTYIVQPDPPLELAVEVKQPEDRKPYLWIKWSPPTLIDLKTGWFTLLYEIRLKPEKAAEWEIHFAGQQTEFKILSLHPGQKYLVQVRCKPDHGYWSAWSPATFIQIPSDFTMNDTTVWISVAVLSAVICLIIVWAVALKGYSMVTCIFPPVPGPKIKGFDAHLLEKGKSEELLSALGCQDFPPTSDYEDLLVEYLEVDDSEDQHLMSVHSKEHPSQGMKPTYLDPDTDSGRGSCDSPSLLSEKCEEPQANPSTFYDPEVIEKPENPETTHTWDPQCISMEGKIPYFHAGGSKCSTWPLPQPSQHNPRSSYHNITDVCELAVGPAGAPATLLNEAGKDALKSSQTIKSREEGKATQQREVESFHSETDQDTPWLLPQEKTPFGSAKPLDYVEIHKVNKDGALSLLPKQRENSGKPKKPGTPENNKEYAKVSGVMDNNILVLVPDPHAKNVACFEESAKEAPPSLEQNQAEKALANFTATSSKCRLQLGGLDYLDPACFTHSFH
- test_method_notes: FACS cell surface binding
property_measured: FACS Cell Binding (Fold Above Background)

molecule	measurement_units	test_result
H1H6959N2: human IgG1 Fc form of H2M6959N2; anti-PRLR; HCVR/LCVR SEQ ID NOs 306/314 (antibody, V domains shown, human IgG1 Fc) VH: EVQLVESGGGLVQPGRSLRLSCAASGFTFDDYAMHWVRQAPGKGLEWVSGISWHSGIIGYADSVKGRFTISRDNAKNSLYLQMNSLRTEDAALYYCAKIGSYFYFDSWGQGTLVTVSS VL: EIVLTQSPGTLSLSPGERATLSCRASQSVSSNYLAWYQQKPGQAPRLLIYGASSRATGIPDRFSGSGSGTDFTLTISRLEPEDFAVYYCQQFGSSGYTFGQGTNLEIK	Fold Above Background	9
H1H6785P: anti-PRLR antibody, human IgG1 Fc; HCVR/LCVR SEQ ID NOs 98/106 (antibody, V domains shown, human IgG1 Fc) VH: EVQLVESGGGLVQPGGSLRLSCAASGFTFSSYEMNWVRQAPGKGLEWISYISSRGGTIYYADSIKGRFTIYRDNARNSLYLQMNSLRAEDTAIYYCARLSGVDIFDIWGQGTMVTVSS VL: DIQMTQSPSSLSASVGDRVTITCRASQGISNYLAWYQQKPGKVPKLLIYFASTLQSGVPSRFSGGGSGTDFTLTISSLQPEDVATYYCQRYNSAPLTFGGGTKVEIK	Fold Above Background	40
H1H6782P: anti-PRLR antibody, human IgG1 Fc; HCVR/LCVR SEQ ID NOs 66/74; non-blocking (antibody, V domains shown, human IgG1 Fc) VH: EVQLVESGGGLVQPGRSLRLSCAASGFTFDDYAMHWVRQAPGKGLEWVSGIIWNSGHIGYGDSVKGRFTISRDNAKKSLYLQMNSLRAEDTALYYCARDSGRYQSYFDYWGQGTLVTVSS VL: DIQMTQSPSTLSASVGDRVTITCRASHIISSWLAWYQQKPGKAPKVLIFKASSLESGVPSRFSGSGSGTEFTLTISSLQPDDFATYYCQQYNTYSRTFGQGTKVEIK	Fold Above Background	43
H1H6958N2: human IgG1 Fc form of H2M6958N2; anti-PRLR, receptor blocking; HCVR/LCVR SEQ ID NOs 290/298 (antibody, V domains shown, human IgG1 Fc) VH: QVQLVESGGGVVQPGRSLRLSCGASGFTFRNYGMQWVRQGPGKGLEWVTLISFDGNDKYYADSVKGRFTISRDNSKNTLFLQMNSLRTEDTAVYYCARGGDFDYWGQGTLVTVSS VL: DIQMTQSPSSLSASVGDRVTITCRASQDIRKDLGWYQQKPGKAPKRLIYAASSLHSGVPSRFSGSGSGTEFTLTISSLQPEDFATYYCLQHNSYPMYTFGQGTKLEIK	Fold Above Background	37
